# Tested on: M19-MEL melanoma
# METHOD_SUMMARY: NCI tumour cell line growth inhibition, 48 h
// values below are reported TGI
Note: unit µM is implicit; provide only the numeric part.

Look over these answered cases.
{"MOLECULE": "FC(F)(F)C1(C(F)(F)F)O[SiH]2(OC(C(F)(F)F)(C(F)(F)F)c3ccccc32)c2ccccc21", "UNIT_ANNOTATION": "µM", "TGI": 39.4}
{"MOLECULE": "O=C(N/C(=C\\c1ccc(Oc2ccc(Cl)c(Cl)c2)cc1)c1nc2ccccc2[nH]1)c1ccccc1", "UNIT_ANNOTATION": "µM", "TGI": 94}

# input molecule: CC[C@](C)(O)C(=O)O[C@H]1C(=O)O[C@@H]2C[C@H]3C(C)=C[C@H](O)[C@@H](O)[C@]3(C)[C@H]3[C@@]4(O)OC[C@]32[C@@H]1[C@@H](C)[C@H]4O ; wanted: its TGI
45.5

# input molecule: [C-]#[N+]C(C)(C)C[C@H]1CC(C)C2CCC(C)C3([N+]#[C-])CCC(=C)C1[C@H]23 (some centres undefined) ; wanted: its TGI
9.43

# input molecule: COc1cc2cccc(NC(=O)c3cc(OC)c(OC)c(OC)c3Br)c2cc1OC ; wanted: its TGI
32.5

# input molecule: COc1ccc2c(c1)CC1c3c(cc4c(c3-2)OCO4)CCN1C (centres undefined) ; wanted: its TGI
45.2

* * *

# System: HT29 colon
# METHOD_SUMMARY: NCI tumour cell line growth inhibition, 48 h
REPORTED_ENDPOINT: TGI

Look over these answered cases.
{"MOLECULE": "c1ccc(SC(CCCCOC2CCCCO2)Sc2ccccc2)cc1 (stereo not given)", "TGI": "> 100 µM"}
{"MOLECULE": "CC(C)(C)c1cc(C(=O)/C=C/c2ccc3c(c2)CCO3)cc(C(C)(C)C)c1O", "TGI": "> 27.2 µM"}
{"MOLECULE": "Nc1ccccc1OCc1cc(=O)c(OCc2ccccc2)co1", "TGI": "> 100 µM"}
{"MOLECULE": "CCOC(=O)c1nc2ccccc2nc1Oc1ccc(OC)cc1", "TGI": "> 100 µM"}
{"MOLECULE": "CC(C)(c1ccc(OC#N)cc1)c1ccc(OC#N)cc1", "TGI": "> 100 µM"}

# input molecule: CN(C)/C=C/c1ccncc1 ; wanted: its TGI
> 100 µM

# input molecule: Oc1c(N=Nc2ccccc2)c2ccccc2c2ccc3ccccc3c12 ; wanted: its TGI
> 100 µM

* * *

# System: KM12 colon
# METHOD_SUMMARY: NCI tumour cell line growth inhibition, 48 h
REPORTED_ENDPOINT: TGI (µM)
Note: unit µM is implicit; provide only the numeric part.

{"COMPOUND": "CC(=O)N1N=C(c2c(O)ccc3ccccc23)CC1c1ccc(Cl)cc1 (stereo not given)", "SYSTEM_TESTED": "KM12 colon", "UNIT_ANNOTATION": "µM", "TGI": 29.9}

Pending compound:
# input compound: CC(C)(C)N(Cc1ccoc1)C(=O)/C=C\S(=O)c1ccccc1 (stereo not given) ; wanted: its TGI
34.5

* * *

# Tested on: SNB-78 CNS
# METHOD_SUMMARY: NCI tumour cell line growth inhibition, 48 h
REPORTED_ENDPOINT: TGI

Look over these answered cases.
{"COMPOUND": "FC(F)(F)C1(C(F)(F)F)O[SiH]2(OC(C(F)(F)F)(C(F)(F)F)c3ccccc32)c2ccccc21", "ENDPOINT_RESULT": "52.8 µM"}
{"COMPOUND": "CCOc1ccccc1NC(=O)C1=C(C)NC(C)=C(C(=O)Nc2ccccc2OCC)C1c1ccc(NC(C)=O)cc1", "ENDPOINT_RESULT": "> 100 µM"}
{"COMPOUND": "COc1ccc(CCc2ccccc2CC(=O)O)cc1", "ENDPOINT_RESULT": "> 100 µM"}
{"COMPOUND": "COc1ccc2c(c1)CC1c3c(cc4c(c3-2)OCO4)CCN1C (centres undefined)", "ENDPOINT_RESULT": "> 100 µM"}
{"COMPOUND": "COc1cc([C@@H]2OC(=O)C3C2C(=O)O[C@H]3c2cc(OC)c(OC)c(OC)c2)cc(OC)c1OC (some centres undefined)", "ENDPOINT_RESULT": "> 100 µM"}

# input compound: CC(=O)c1cccc(NC(=O)C(=O)C(C(=O)c2ccccc2F)C2OC(=O)c3ccccc32)c1 (centres undefined) ; wanted: its TGI
> 100 µM

# input compound: O=C1CCCC1NC(=O)C(F)(F)F (centres undefined) ; wanted: its TGI
> 100 µM

# input compound: COc1cc(C2c3cc4c(cc3[C@@H](NCCCN(C)C)[C@H]3COC(=O)C23)OCO4)cc(OC)c1O (some centres undefined) ; wanted: its TGI
> 37.5 µM

# input compound: COC(=O)C(CC(=O)Nc1ccc(Cl)c(Cl)c1)C(=O)C(=O)NC1C2CC3CC(C2)CC1C3 (centres undefined) ; wanted: its TGI
> 100 µM

* * *

# Test system: SNB-19 CNS
# METHOD_SUMMARY: NCI tumour cell line growth inhibition, 48 h
// values below are reported TGI

Look over these answered cases.
{"COMPOUND": "O=Cc1ccc(-c2cccc([N+](=O)[O-])c2)s1", "SYSTEM_TESTED": "SNB-19 CNS", "TGI": "> 100 µM"}
{"COMPOUND": "Clc1nc(Cl)c(Cc2ccccc2)c(Cl)n1", "SYSTEM_TESTED": "SNB-19 CNS", "TGI": "33.3 µM"}
{"COMPOUND": "COCCNC(=O)c1ccc(-c2nc3ccc4[nH]ncc4c3c3c2CCCC3)cc1", "SYSTEM_TESTED": "SNB-19 CNS", "TGI": "> 100 µM"}
{"COMPOUND": "O=C1NC(=NC2CCCCC2)C2(CCN(CCCC3(c4ccc(F)cc4)OCCO3)CC2)N1c1ccccc1", "SYSTEM_TESTED": "SNB-19 CNS", "TGI": "35 µM"}
{"COMPOUND": "Cn1c(=O)c(C(=O)NC(=O)OCc2ccccc2)cn(CCSCCOC(=O)NCCCCCCNC(=O)OCCSCCn2cc(C(=O)NC(=O)OCc3ccccc3)c(=O)n(C)c2=O)c1=O", "SYSTEM_TESTED": "SNB-19 CNS", "TGI": "> 100 µM"}
{"COMPOUND": "CCOC(=O)NC(=O)c1cn(CCN2CCN(C(=O)NCCCCCCNC(=O)N3CCN(CCn4cc(C(=O)NC(=O)OCC)c(=O)n(CCN(CC)CC)c4=O)CC3)CC2)c(=O)n(CCC(CC)CC)c1=O", "SYSTEM_TESTED": "SNB-19 CNS", "TGI": "> 100 µM"}
{"COMPOUND": "C=C1C(=O)O[C@H]2[C@H]1CC/C(CNS(=O)(=O)c1cccc3ccccc13)=C\\CC[C@@]1(C)O[C@@H]21", "SYSTEM_TESTED": "SNB-19 CNS", "TGI": "19.8 µM"}
{"COMPOUND": "N/C(COc1ccc(Cl)cc1)=N\\NC(=O)c1ccncc1", "SYSTEM_TESTED": "SNB-19 CNS", "TGI": "> 100 µM"}

Pending compound:
# input compound: CC12CC3CC(C1)CC(N=[N+]=[N-])(C3)C2 ; wanted: its TGI
> 100 µM

* * *

# Test system: MALME-3M melanoma
# METHOD_SUMMARY: NCI tumour cell line growth inhibition, 48 h
REPORTED_ENDPOINT: GI50

Look over these answered cases.
{"COMPOUND": "CN(C)CCNC(=O)c1cc2c3ccccc3[nH]c2c2ncccc12", "SYSTEM_TESTED": "MALME-3M melanoma", "ENDPOINT_RESULT": "10.7 µM"}
{"COMPOUND": "C=C1CC[C@@H]2[C@](C)(COC(C)=O)[C@H](OC(C)=O)CC[C@@]2(C)[C@@H]1C/C=C1/C(=O)OC[C@H]1OC(C)=O", "SYSTEM_TESTED": "MALME-3M melanoma", "ENDPOINT_RESULT": "2.98 µM"}
{"COMPOUND": "OC(CNC1CCCC1)Cn1c2ccccc2c2ccccc21 (configuration not stated)", "SYSTEM_TESTED": "MALME-3M melanoma", "ENDPOINT_RESULT": "37 µM"}

# input compound: N#Cc1nc2cc(F)c(F)cc2nc1-c1ccc(Cl)cc1 ; wanted: its GI50
15.8 µM

# input compound: COc1cc([N+](=O)[O-])c(OC)cc1-c1nc2sc(Cl)cn2c1/C=N/NC(=N)N/N=C/c1c(-c2cc(OC)c([N+](=O)[O-])cc2OC)nc2sc(Cl)cn12 ; wanted: its GI50
1.61 µM

# input compound: COc1ccc(/C=C/C(=O)c2cc3c(N)c(C(=O)Nc4ccccc4)sc3nc2C)cc1 ; wanted: its GI50
1.7 µM

# input compound: COc1cccc2c(=O)c3c(sc12)c(NCCN(C)C)nc1ccccc13 ; wanted: its GI50
1.83 µM

Where do these numbers come from? They come from PubChem BioAssay (NCI).
